# ASSAY METHOD TEXT: chemical genetic growth profiling, strain panel (AID 1159580);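 further: tested at 20 µM; growth read once vehicle control cultures reached saturation at 30 °C; 1 = growth at the plate median or of vehicle wells; lower values mean less growth of the strain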
# EXPERIMENTAL PARAMETERS: S. cerevisiae deletion strains, growth OD, locus YMR219W, strain ESC1, active compounds read low
The whole screen tested about 5,500 compounds, of which about 2,000 (36%) were called active. Another 18% or so got no clear call; they are omitted. The list shows a part of the results.
PROPERTY LABEL: normalized growth
Hey, just send me the number, nothing else.

See these solved cases before continuing.
COMPOUND: ON=C(c1cccs1)c1cccs1
PROPERTY LABEL: normalized growth
RESULT: 0.963
--
COMPOUND: C=C1SC(Nc2cccc(C(F)(F)F)c2)=NC12CCCCC2
PROPERTY LABEL: normalized growth
RESULT: 0.999
--
COMPOUND: COc1ccccc1Oc1ccc(C(F)(F)F)cc1NC(=O)NC(=O)c1ccccc1F
PROPERTY LABEL: normalized growth
RESULT: 0.994
--
COMPOUND: CCOC(=O)C1C(c2cccnc2)C(C(=O)OCC)C(O)(C(F)(F)F)NC1(O)C(F)(F)F (stereo not given)
PROPERTY LABEL: normalized growth
RESULT: 1.01
--
COMPOUND: CCOC(=O)/C(C#N)=C/c1ccc(Br)cc1
PROPERTY LABEL: normalized growth
RESULT: 0.926
--
COMPOUND: CCOC(=O)c1sc(S(C)(=O)=O)c2c1CCCC2O (stereo not given)
PROPERTY LABEL: normalized growth
RESULT: 1.01
--
COMPOUND: Clc1ccc(C=C2c3ccccc3-c3ccccc32)cc1
PROPERTY LABEL: normalized growth
RESULT: 0.988
--
COMPOUND: COC(=O)CSc1ncnc2c(C)csc12
PROPERTY LABEL: normalized growth
RESULT: 1

compound COC(=O)CSc1nc2ccc(Cl)cc2s1 , normalized growth observed: 0.962

compound CCOC(=O)C1=C(N)Oc2ccc(Br)cc2C1C(C#N)C(=O)OCC (stereo not given) , normalized growth observed: 0.979

compound O=[N+]([O-])c1ccc(Oc2cccc3cccnc23)cc1 , normalized growth observed: 0.993

compound Cn1c2c(c3c1CCCC3)CCCC2 , normalized growth observed: 1.02

---

# ASSAY METHOD TEXT: chemical genetic growth profiling, strain panel (AID 1159580);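 further: tested at 20 µM; growth read once vehicle control cultures reached saturation at 30 °C; 1 = growth at the plate median or of vehicle wells; lower values mean less growth of the strain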
# EXPERIMENTAL PARAMETERS: S. cerevisiae deletion strains, growth OD, locus YNL322C, strain KRE1
Hit rate of the full screen: of about 5,500 compounds, about 2,000 (36%) were called active. Inconclusive results (about 18%) are left out. No stated cut-off is given here; in the data, active means normalized growth mostly below about 0.91 (no sharp cut-off); inconclusive means no clear call, values can overlap the other calls; inactive means mostly above about 0.92. The list shows a part of the results.
Can you answer with just one of these options? Yes = active, No = inactive

MOLECULE: COc1cc(/C=C(\C#N)C(=O)c2ccc(O)c(O)c2)cc(I)c1O
CLASSIFICATION: No

Switching to the query record.
Inquiry: Answer briefly: the call reported for O=C(Nc1ccccc1)c1cc([N+](=O)[O-])ccc1Cl in this assay.
Reply text: No

---

# ASSAY METHOD TEXT: chemical genetic growth profiling, strain panel (AID 1159580);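 further: tested at 20 µM; growth read once vehicle control cultures reached saturation at 30 °C; 1 = growth at the plate median or of vehicle wells; lower values mean less growth of the strain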
# EXPERIMENTAL PARAMETERS: S. cerevisiae deletion strains, growth OD, locus YGR135W, strain pre9, active compounds read low
Among all 5,500 compounds or so, about 2,000 (36%) were called active. Inconclusive results (about 18%) are left out. The list shows a part of the results.
PROPERTY LABEL: normalized growth
Hey, just send me the number, nothing else.

COMPOUND: C[C@@H]1CC[C@@]2(OC1)O[C@H]1CC3C4CC[C@H]5C[C@@H](O)CC[C@]5(C)C4CC[C@]3(C)[C@H]1[C@@H]2C (some centres not stated)
RESULT: 0.941

COMPOUND: COc1cc2occc2c2oc(=O)ccc12
RESULT: 0.99

COMPOUND: C[C@@H]1CC[C@@]2(NC1)O[C@H]1C[C@H]3C4CC=C5C[C@@H](O)CC[C@]5(C)C4CC[C@]3(C)C1[C@@H]2C (some centres not stated)
RESULT: 0.0806

COMPOUND: O=c1c(O)c(-c2cc(O)c(O)c(O)c2)oc2cc(O)cc(O)c12
RESULT: 0.998

COMPOUND: C[C@@H]1O[C@@H](OC[C@H]2OC(Oc3c(-c4ccc(OCCO)c(OCCO)c4)oc4cc(OCCO)cc(O)c4c3=O)[C@H](O)[C@@H](O)[C@@H]2O)[C@H](O)[C@H](O)[C@H]1O (some centres not stated)
RESULT: 0.97

# context switch: different compound, same normalized growth
compound O=C(OC1Cc2c(O)cc(O)cc2OC1c1cc(=O)c(O)c2c(O)c(O)cc(C3Oc4cc(O)cc(O)c4CC3O)c2c1)c1cc(O)c(O)c(O)c1 (configuration not stated) , normalized growth observed: 0.67
